target: PDGFRβ (Rattus norvegicus (Rat)); test: PDGFRβ Cellular Assay (PDGFRb P-Y751 HTRF in A10 cells stimulated with PDGF-BB); assay type: cell-based; details: read-out: PDGFR Cellular IC50
Sequence (Q05030 32-1097): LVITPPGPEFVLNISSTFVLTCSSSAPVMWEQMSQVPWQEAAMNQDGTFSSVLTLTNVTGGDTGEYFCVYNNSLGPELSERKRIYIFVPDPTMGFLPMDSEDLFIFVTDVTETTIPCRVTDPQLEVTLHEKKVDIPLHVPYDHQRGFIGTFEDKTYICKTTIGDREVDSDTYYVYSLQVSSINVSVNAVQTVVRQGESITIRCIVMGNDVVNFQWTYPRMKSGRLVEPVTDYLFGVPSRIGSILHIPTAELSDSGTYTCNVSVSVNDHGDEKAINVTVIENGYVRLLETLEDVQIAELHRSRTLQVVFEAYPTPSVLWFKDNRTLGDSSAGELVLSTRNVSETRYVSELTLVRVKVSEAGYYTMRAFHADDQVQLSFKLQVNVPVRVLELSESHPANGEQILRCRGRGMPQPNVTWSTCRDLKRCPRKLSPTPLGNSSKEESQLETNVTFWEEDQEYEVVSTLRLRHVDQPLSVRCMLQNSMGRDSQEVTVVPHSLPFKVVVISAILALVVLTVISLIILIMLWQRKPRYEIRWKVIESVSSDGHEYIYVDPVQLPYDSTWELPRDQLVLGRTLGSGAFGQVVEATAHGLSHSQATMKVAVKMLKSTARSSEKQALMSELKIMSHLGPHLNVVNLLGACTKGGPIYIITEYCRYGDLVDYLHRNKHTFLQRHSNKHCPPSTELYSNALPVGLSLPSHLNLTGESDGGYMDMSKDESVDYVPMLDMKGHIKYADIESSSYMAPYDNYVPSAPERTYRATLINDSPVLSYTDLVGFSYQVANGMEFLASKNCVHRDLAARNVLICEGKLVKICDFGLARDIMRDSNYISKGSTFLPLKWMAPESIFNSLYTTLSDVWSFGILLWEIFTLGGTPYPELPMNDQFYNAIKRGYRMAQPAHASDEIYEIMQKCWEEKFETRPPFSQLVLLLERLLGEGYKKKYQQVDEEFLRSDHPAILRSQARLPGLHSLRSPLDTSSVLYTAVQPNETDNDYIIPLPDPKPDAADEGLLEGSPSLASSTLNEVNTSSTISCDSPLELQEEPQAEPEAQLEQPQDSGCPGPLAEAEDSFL
pIC50: −log10 of the molar value.
Assay Readout: pIC50

>>> test_value("Cc1ncc(NC(=O)CN2CCC(C)(C)C2)cc1NC(=O)c1cnn2cc(-c3cnn(CCO)c3)sc12")
7.87
>>> test_value("Cc1ncc(NC(=O)CN2C[C@@H](CO)O[C@@H](C)C2)cc1NC(=O)c1cnn2cc(-c3cnn(C)c3)sc12 (relative stereo)")
6.52
>>> test_value("Cc1ncc(C(=O)NCCN2CCC(C)(C)C2)cc1NC(=O)c1cnn2cc(-c3ccncc3)sc12")
7.58
>>> test_value("Cc1ncc(NC(=O)CC(C)N2CCCCC2)cc1NC(=O)c1cnn2cc(-c3cnn(C)c3)sc12 (stereo not drawn)")
7.14
>>> test_value("Cc1ncc(C(=O)NCCN2CCCC2(C)C)cc1NC(=O)c1cnn2cc(-c3cnn(C)c3)sc12")
7.36
>>> test_value("Cc1ncc(NC(=O)CN2CCCC23CCC3)cc1NC(=O)c1cnn2cc(-c3cnn(CCO)c3)sc12")
8.30
>>> test_value("Cc1ncc(C(=O)NCCN2CC3CCC2CC3)cc1NC(=O)c1cnn2cc(-c3cnn4c3COCC4)sc12")
7.47
>>> test_value("Cc1ncc(NC(=O)[C@H]2CCCN2C(C)C)cc1NC(=O)c1cnn2cc(-c3cnn4c3OCCC4)sc12")
8.22
>>> test_value("Cc1ncc(NC(=O)CN2CCC[C@H]2C)cc1NC(=O)c1cnn2cc(-c3cnn(C)c3)sc12")
8.23
>>> test_value("Cc1ncc(NC(=O)CN2CCC[C@@H]2C)cc1NC(=O)c1cnn2cc(-c3cnn4c3OCCC4)sc12")
8.47
>>> test_value("COc1ncccc1-c1cn2ncc(C(=O)Nc3cc(NC(=O)CN4CCOCC45CCC5)cnc3C)c2s1")
8.48
>>> test_value("COCCn1cc(-c2cn3ncc(C(=O)Nc4cc(NC(=O)CN5CC[C@@H](C)C5)cnc4C)c3s2)cn1 (single isomer, unassigned)")
8.00
>>> test_value("COCCn1cc(-c2cn3ncc(C(=O)Nc4cc(NC(=O)CCN5CCC6(CCC6)C5)cnc4C)c3s2)cn1")
7.70
>>> test_value("COCCn1cc(-c2cn3ncc(C(=O)Nc4cc(NC(=O)CCN5CCCC5(C)C)cnc4C)c3s2)cn1")
8.00
>>> test_value("Cc1ncc(C(=O)NCCN2CCCC2(C)C)cc1NC(=O)c1cnn2cc(-c3cnn(C4CC4)c3)sc12")
8.11

###

target: PDGFRβ (Rattus norvegicus (Rat)); assay: PDGFRβ Cellular Assay (PDGFRb P-Y751 HTRF in A10 cells stimulated with PDGF-BB); type: cell-based; conditions: read-out: PDGFR Cellular IC50
pIC50: −log10 of the molar value.
Assay Readout: pIC50

>>> test_value("Cc1ncc(NC(=O)[C@@H]2CCCN2C(C)C)cc1NC(=O)c1cnn2cc(-c3cnn4c3OCCC4)sc12")
8.17
>>> test_value("CCOc1ncccc1-c1cn2ncc(C(=O)Nc3cc(NC(=O)CN4CC(C)(C)C4)cnc3C)c2s1")
8.80
>>> test_value("Cc1ncc(NC(=O)CN2CC(C)(C)C2)cc1NC(=O)c1cnn2cc(-c3cnn(C(F)(F)F)c3)sc12")
7.76
>>> test_value("Cc1ncc(NC(=O)CCN2CCC3(CC2)CC3)cc1NC(=O)c1cnn2cc(-c3cnn(C)c3)sc12")
8.08
>>> test_value("Cc1ncc(NC(=O)CN2C[C@@H](CO)OC(C)(C)C2)cc1NC(=O)c1cnn2cc(-c3cnn(C)c3)sc12")
6.92
>>> test_value("Cc1ncc(NC(=O)CN2CCCC2(C)C)cc1NC(=O)c1cnn2cc(-c3cccn(CCF)c3=O)sc12")
7.97
